Values were extracted from ChEMBL document CHEMBL1201862.

Tested on: M14
Assay: NCI tumour cell line growth inhibition, 48 h
Calls of active or inactive are those of the source. Rule as the data show it: active = GI50 up to about 1.1 µM and inactive = higher.
Measured GI50, listed per entry for reference.

{"Molecule": "N#C/C(C(=O)Nc1ccccc1)=C(/N)N1CCCCC1", "GI50": "91 µM (inactive)"}
{"Molecule": "Cc1c(NC(=O)CSC(=S)N(C)C)c(=O)n(-c2ccccc2)n1C", "GI50": "> 100 µM (inactive)"}
{"Molecule": "CC1(C)CCC2(C(=O)O)C(O)CC3(C)C(=CCC4C5(C)CCC(OC6OCC(O)C(O)C6OC6OCC(O)C(O)C6OC6OCC(O)C(OC7OC(CO)C(O)C(O)C7O)C6O)C(C)(C)C5CCC43C)C2C1 (stereo not given)", "GI50": "40.1 µM (inactive)"}
{"Molecule": "Cn1cnc([N+](=O)[O-])c1Sc1nnc(-c2ccc(Cl)cc2)n1C", "GI50": "13.6 µM (inactive)"}
{"Molecule": "O=C(O)c1cc2c3c(c1)[C@H]1C=CC[C@H]1CN3CC1CC=CC21 (stereo not given in full)", "GI50": "> 100 µM (inactive)"}
{"Molecule": "CC(=O)N1CCC(=O)/C(=C/c2ccccc2)C1", "GI50": "33.8 µM (inactive)"}
{"Molecule": "CCOC(=O)/C=C/c1cccc(F)c1", "GI50": "> 100 µM (inactive)"}
{"Molecule": "O=C(/C=C(\\O)c1cc(-c2ccccc2)n(-c2ccccc2)n1)c1ccccc1", "GI50": "6.24 µM (inactive)"}
{"Molecule": "CCOC(=O)CCCO", "GI50": "> 100 µM (inactive)"}
{"Molecule": "COC(=O)CC1(CNC(=O)OCc2ccccc2)OCCO1", "GI50": "> 100 µM (inactive)"}
